measuredEndpoint: melting point

Consider the reported melting point for these compounds:
{"columns": ["smiles", "endpointResult"],
 "data": [
  ["Oc1c(Cl)cc(Cl)cc1CNc1ccc2ncnc(Nc3cccc(Br)c3)c2c1", "214 to 216 °C"],
  ["Oc1ccc(Br)cc1CNc1ccc2ncnc(Nc3cccc(Cl)c3)c2c1", "227 to 229 °C"],
  ["Cc1ccc(C(=O)Nc2ccc3ncnc(Nc4cccc(Cl)c4)c3c2)c(O)c1", "257 to 258 °C"]
]}

# query: melting point of entry `CCOc1ccccc1C(=O)Nc1ccc2ncnc(Nc3cccc(Cl)c3)c2c1` 111 to 113 °C

Need melting point of `O=C(Nc1ccc2ncnc(Nc3cccc(Cl)c3)c2c1)c1cc(Br)ccc1O` , thanks. 299 to 301 °C

Give its melting point value. Item: `O=C(Nc1ccc2ncnc(Nc3cccc(Br)c3)c2c1)c1ccc(Cl)cc1O` 274 to 277 °C

Data request, read-out melting point, for `O=C(Nc1ccc2ncnc(Nc3cccc(Br)c3)c2c1)c1ccc(C(F)(F)F)cc1O` 289 to 291 °C

Would you mind telling me what melting point value was observed for `Oc1ccc(Cl)cc1CNc1ccc2ncnc(Nc3cccc(Br)c3)c2c1` ? 230 to 232 °C

// melting point lookup, key: `Oc1ccc(Br)cc1CNc1ccc2ncnc(Nc3cccc(Br)c3)c2c1` 189 to 191 °C

Reported melting point, compound `O=C(Nc1ccc2ncnc(Nc3cccc(Br)c3)c2c1)c1cc(Br)ccc1O` : ____ 297 to 299 °C

---

# Test system: A549 cells
# protocolSummary: Antiproliferation WST-1 assay, A549
# Type: cell-based, human
# recordedConditions: WST-1 assay; A549 carcinomic human alveolar basal epithelial cell; read-out: Cellular IC50, A549
Mark y only when IC50 stays strictly below 2 µM. Values equal to the cut-off are n.

{"columns": ["smiles", "group"],
 "data": [
  ["O=C(Nc1ccc2ncnc(Nc3cccc(Br)c3)c2c1)c1cc(Br)ccc1O", "y"],
  ["Oc1c(Br)cc(Br)cc1CNc1ccc2ncnc(Nc3cccc(Cl)c3)c2c1", "y"],
  ["Oc1c(Cl)cc(Cl)cc1CNc1ccc2ncnc(Nc3cccc(Cl)c3)c2c1", "y"],
  ["O=C(Nc1ccc2ncnc(Nc3cccc(Cl)c3)c2c1)c1ccccc1O", "y"],
  ["Oc1ccc(Cl)cc1CNc1ccc2ncnc(Nc3cccc(Br)c3)c2c1", "n"],
  ["Oc1c(Br)cc(Br)cc1CNc1ccc2ncnc(Nc3cccc(Br)c3)c2c1", "y"]
]}

For `Cc1ccc(C(=O)Nc2ccc3ncnc(Nc4cccc(Cl)c4)c3c2)c(O)c1` , is the recorded IC50 below the cut-off of 2 µM? y

Please indicate whether the reported IC50 of `O=C(Nc1ccc2ncnc(Nc3cccc(Br)c3)c2c1)c1ccc(Cl)cc1O` is strictly below 2 µM. y

Does the reported IC50 of the following compound sit strictly below 2 µM? `Oc1ccc(Br)cc1CNc1ccc2ncnc(Nc3cccc(Br)c3)c2c1` n

---

The following compounds are shown together with reported IC50 values.
# Tested on: MDA-MB-453 cells
# protocolSummary: Antiproliferation WST-1 assay, MDA-MB-453
# Assay type: cell-based
# recordedConditions: Homo sapiens, breast cancer, HER-2++, PTEN deficiency
Express it in nM; write the number only.

{"columns": ["compound", "IC50 / nM"],
 "data": [
  ["O=C(Nc1ccc2ncnc(Nc3cccc(Br)c3)c2c1)c1ccc(C(F)(F)F)cc1O", 920]
]}

Let's switch to this compound now.
IC50 for CS(=O)(=O)CCNCc1ccc(-c2ccc3ncnc(Nc4ccc(OCc5cccc(F)c5)c(Cl)c4)c3c2)o1 [Lapatinib, reference compound] ? 720

---

# experimentalSystem: VEGFR2 (Homo sapiens, UniProt P35968)
# Sequence (P35968 786-1356 limits assumed, species assumed): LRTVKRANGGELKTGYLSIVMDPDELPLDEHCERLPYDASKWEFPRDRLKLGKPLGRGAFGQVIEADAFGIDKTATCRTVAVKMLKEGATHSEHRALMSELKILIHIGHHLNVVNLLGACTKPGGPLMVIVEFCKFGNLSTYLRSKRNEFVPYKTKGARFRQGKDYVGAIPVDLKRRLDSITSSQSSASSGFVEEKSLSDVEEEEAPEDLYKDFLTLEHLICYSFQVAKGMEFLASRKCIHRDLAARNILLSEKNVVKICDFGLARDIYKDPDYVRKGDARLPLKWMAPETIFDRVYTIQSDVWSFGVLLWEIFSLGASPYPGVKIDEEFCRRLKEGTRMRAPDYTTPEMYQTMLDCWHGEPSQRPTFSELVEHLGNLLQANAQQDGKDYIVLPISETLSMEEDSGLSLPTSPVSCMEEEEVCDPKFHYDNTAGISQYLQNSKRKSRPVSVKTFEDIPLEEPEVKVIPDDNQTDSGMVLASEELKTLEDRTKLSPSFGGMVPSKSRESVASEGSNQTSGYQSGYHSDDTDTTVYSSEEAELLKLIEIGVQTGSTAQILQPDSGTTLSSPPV
measuredEndpoint: IC50 (µM)
Unit µM implied. Number only.

Item `O=C(Nc1ccc2ncnc(Nc3cccc(Br)c3)c2c1)c1ccc(C(F)(F)F)cc1O` has what recorded IC50? 29.2

---

Heads up, these compounds all have pIC50 values measured for human EGFR (Homo sapiens).
pIC50 here: minus log base 10 of the concentration, concentration in moles per litre.

{"columns": ["smiles", "experimentalSystem", "endpointResult"],
 "data": [
  ["Oc1c(Br)cc(Br)cc1CNc1ccc2ncnc(Nc3cccc(Cl)c3)c2c1", "human EGFR (Homo sapiens)", 6.05],
  ["O=C(Nc1ccc2ncnc(Nc3cccc(Br)c3)c2c1)c1cc(Br)ccc1O", "human EGFR (Homo sapiens)", 5.89],
  ["Oc1ccc(Cl)cc1CNc1ccc2ncnc(Nc3cccc(Br)c3)c2c1", "human EGFR (Homo sapiens)", 6.39],
  ["Oc1c(Cl)cc(Cl)cc1CNc1ccc2ncnc(Nc3cccc(Br)c3)c2c1", "human EGFR (Homo sapiens)", 6.14],
  ["Cc1ccc(C(=O)Nc2ccc3ncnc(Nc4cccc(Cl)c4)c3c2)c(O)c1", "human EGFR (Homo sapiens)", 6.31],
  ["Oc1c(Cl)cc(Cl)cc1CNc1ccc2ncnc(Nc3cccc(Cl)c3)c2c1", "human EGFR (Homo sapiens)", 6.19],
  ["O=C(Nc1ccc2ncnc(Nc3cccc(Br)c3)c2c1)c1cc(Br)cc(Br)c1O", "human EGFR (Homo sapiens)", 5.85],
  ["O=C(Nc1ccc2ncnc(Nc3cccc(Br)c3)c2c1)c1cc(Cl)ccc1O", "human EGFR (Homo sapiens)", 5.97]
]}

# input for lookup
Entry `O=C(Nc1ccc2ncnc(Nc3cccc(Cl)c3)c2c1)c1ccccc1O` , system human EGFR (Homo sapiens): what pIC50 was measured? 6.80

---

# Test system: A431 cells
# protocolSummary: Antiproliferation WST-1 assay, A431
# Format: cell-based, human
# recordedConditions: Homo sapiens, A-431, read-out: Cellular IC50, A431
measuredEndpoint: IC50

For the compound `Nc1ccc2ncnc(Nc3cccc(Br)c3)c2c1` , what IC50 is on record? < 1000 nM

---

# experimentalSystem: UniProt:Q16539
# Sequence (Q16539 whole entry): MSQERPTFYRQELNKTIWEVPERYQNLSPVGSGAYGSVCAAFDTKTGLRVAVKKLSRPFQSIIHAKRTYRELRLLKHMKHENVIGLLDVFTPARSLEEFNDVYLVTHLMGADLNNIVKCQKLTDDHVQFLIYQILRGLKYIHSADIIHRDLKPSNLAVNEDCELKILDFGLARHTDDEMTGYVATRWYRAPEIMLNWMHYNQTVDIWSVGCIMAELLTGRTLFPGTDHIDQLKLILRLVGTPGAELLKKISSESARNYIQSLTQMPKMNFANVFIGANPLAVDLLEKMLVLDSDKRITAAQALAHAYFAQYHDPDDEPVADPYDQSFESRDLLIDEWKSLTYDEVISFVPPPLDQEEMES
measuredEndpoint: pIC50
Reminder that pIC50 is minus the log10 of a molar concentration.

What value of measured pIC50 is listed for O=C(Nc1ccc2ncnc(Nc3cccc(Br)c3)c2c1)c1ccc(C(F)(F)F)cc1O [Compound 21] ? 4.79

---

Reported IC50 values follow for various compounds
# System: A549 cells
# protocolSummary: Antiproliferation WST-1 assay, A549
# Format: cell-based, human
# recordedConditions: WST-1 assay; A549 carcinomic human alveolar basal epithelial cell; read-out: Cellular IC50, A549
Reply with just the number (in nM).

Reference set, count: 4
{"columns": ["smiles", "IC50 [nM]"],
 "data": [
  ["O=C(Nc1ccc2ncnc(Nc3cccc(Br)c3)c2c1)c1cc(Br)cc(Br)c1O", 1800],
  ["CCOc1ccccc1C(=O)Nc1ccc2ncnc(Nc3cccc(Cl)c3)c2c1", 1580],
  ["Oc1c(Cl)cc(Cl)cc1CNc1ccc2ncnc(Nc3cccc(Br)c3)c2c1", 1930],
  ["O=C(Nc1ccc2ncnc(Nc3cccc(Cl)c3)c2c1)c1ccc(Cl)cc1O", 1360]
]}

Note: attention shifts to another entry.
May I ask what IC50 has been recorded for `Oc1ccc(Cl)cc1CNc1ccc2ncnc(Nc3cccc(Cl)c3)c2c1` ? 2170

---

IC50 reference
# Tested on: MCF-7 cells
# protocolSummary: Antiproliferation WST-1 assay, MCF-7
# Format: cell-based, human
# recordedConditions: WST-1 assay; MCF-7 breast cancer, Her2/neu overexpression; read-out: Cellular IC50, MCF-7
Reply with just the number (in nM).

Here's what some known entries look like.
{"columns": ["smiles", "experimentalSystem", "endpointResult"],
 "data": [
  ["Oc1ccc(Cl)cc1CNc1ccc2ncnc(Nc3cccc(Br)c3)c2c1", "MCF-7 cells", 770],
  ["Oc1ccc(Cl)cc1CNc1ccc2ncnc(Nc3cccc(Cl)c3)c2c1", "MCF-7 cells", 920]
]}

The record that follows has no IC50 shown yet.
Which IC50 reading was recorded for the molecule `Oc1c(Br)cc(Br)cc1CNc1ccc2ncnc(Nc3cccc(Br)c3)c2c1` ? 1070

---

Each entry below lists one item and its recorded melting point value.

{"columns": ["compound", "endpointResult"],
 "data": [
  ["O=C(Nc1ccc2ncnc(Nc3cccc(Br)c3)c2c1)c1cc(Br)cc(Br)c1O [Compound 20]", "274 to 276 °C"],
  ["O=C(Nc1ccc2ncnc(Nc3cccc(Br)c3)c2c1)c1cc(Cl)ccc1O [Compound 19]", "304 to 306 °C"],
  ["O=C(Nc1ccc2ncnc(Nc3cccc(Cl)c3)c2c1)c1ccc(Cl)cc1O [Compound 23]", "211 to 213 °C"],
  ["O=C(Nc1ccc2ncnc(Nc3cccc(Br)c3)c2c1)c1ccc(Cl)cc1 [Compound 27]", "230 to 232 °C"],
  ["Oc1ccc(Cl)cc1CNc1ccc2ncnc(Nc3cccc(Cl)c3)c2c1 [Compound 13]", "238 to 240 °C"]
]}

Look at this compound and give its reported melting point. O=C(Nc1ccc2ncnc(Nc3cccc(Cl)c3)c2c1)c1ccccc1O [Compound 22] 117 to 120 °C

Sample Oc1c(Br)cc(Br)cc1CNc1ccc2ncnc(Nc3cccc(Cl)c3)c2c1 [Compound 16] — what was its melting point? 207 to 209 °C

Look at this compound and give its reported melting point. Oc1c(Br)cc(Br)cc1CNc1ccc2ncnc(Nc3cccc(Br)c3)c2c1 [Compound 12] 169 to 171 °C

Can you look up the measured melting point of Oc1c(Cl)cc(Cl)cc1CNc1ccc2ncnc(Nc3cccc(Cl)c3)c2c1 [Compound 14] for me? 211 to 213 °C
